Values were extracted from PubChem BioAssay (NCI).

- test-description: NCI Yeast Anticancer Drug Screen. Data for the mlh1 rad18 strain (AID 175)
- condition-summary: S. cerevisiae mlh1 rad18 strain growth inhibition; at 50.0 µM
The panel holds about 79,000 compounds, 15% with a hit somewhere; the sample as a whole holds those more often. Active and inactive are the calls of the source. No stated cut-off is given here; in the data, active means growth inhibition above about 70%; inactive means the rest.
Choose one outcome from this list and give only that: 1 = active, 0 = inactive

# example entries with known answers
| molecule | cat |
| --- | --- |
| C=C1CC[C@H]2C(C)=CC[C@@H]3[C@H](OC(=O)[C@H]3COC)[C@@H]12 | 0 |
| CN1CSCC1C(=O)O (stereo not drawn) | 0 |
| CCOc1ccc2c(N=[N+]=[N-])cc(C)nc2c1 | 0 |
| Clc1ccc(C2SCCS2)c(Cl)c1 | 0 |
| NNC(=O)C(=O)N/N=C1\CCC(=O)CC1C(=O)CCC(=O)Nc1ccc(Cl)cc1 (stereo not drawn) | 0 |
| c1ccc2[nH]c3c(N=NC4=NCCN4)c4ccccc4c-3nc2c1 | 0 |
| CC(=O)Nc1cc2ccccc2oc1=O | 0 |
| ClC1(Cl)C2CCOC21n1cnc2ccccc21 (stereo not drawn) | 0 |

// outcome(item) with item = "CCOC(CN(C)C)OCC"
0

What about CC(C)=CC1C[C@H](C2CC=C3C2(C)CCC2[C@@]3(C)C(=O)CC3[C@]2(C)C=CC(=O)[C@]3(C)CO)CO1 (stereo partly drawn) ?
1

What about "CC(C)=C(Cl)c1c(C)cc(C)c(CC(N)=O)c1C" ?
0

What about Nc1ccn(C2OC(CO)C(O)C2Br)c(=O)n1 (stereo not drawn) ?
0

----------
Can you tell me growth inhibition for the items I'm about to list?
- test-description: NCI Yeast Anticancer Drug Screen. Data for the mec2-1 strain (AID 157)
- condition-summary: S. cerevisiae mec2-1 strain, at 50.0 µM, active compounds read high
- Method: Growth inhibition of yeast strains with defined genetic alterations is measured as a screen for potential anti-cancer activity. Selected strains with alterations in DNA damage repair or cell cycle control were exposed to compounds and growth inhibition was measured relative to vehicle treated controls. The strain used in this assay is mec2-1
Compounds without any hit were thinned out: in the full panel of roughly 79,000, 15% have a hit.
One number for each entry, in %.

| molecule | unit-string | endpoint-value |
| --- | --- | --- |
| CCN(CC(=O)O)C(=O)c1cccnc1 | % | 4.05 |
| ClC1CC2CC1C1CCCC21 (configuration not stated) | % | -3.75 |
| CCOC(=O)C1CCCCN1C(=O)OCc1ccccc1 (configuration not stated) | % | -1.75 |
| C/C(=N/NC(=O)c1ccccc1)C(=O)c1ccccc1 | % | -12.2 |
| COC(=O)C(c1ccccc1)C(SCc1ccccc1)c1ccccc1 (configuration not stated) | % | 1.15 |
| O=[N+]([O-])c1ccc(COP(=O)(OCc2ccc([N+](=O)[O-])cc2)OCc2ccc([N+](=O)[O-])cc2)cc1 | % | -2.35 |
| CCCCCCCCCCCC(=O)OCCSC#N | % | 0.1 |
| CC(C)CCCC(C)C1CCC2C3CCC4=C/C(=N/O)CCC4(C)C3CCC12C (configuration not stated) | % | 12.2 |
| O=C(O)c1cc(=O)c2cc(Cl)ccc2[nH]1 | % | -12.2 |
| CCCCCC(Oc1ccc(Cl)cc1)C(=O)OCC (configuration not stated) | % | 9.1 |

# batch size: 7; output growth inhibition per entry
1. COc1cccc(-n2cnc3c(=O)[nH]cnc32)c1
2. Cc1[nH]c2ccccc2c1-c1cc(-c2cc(-c3c(C)[nH]c4ccccc34)nc(N)n2)nc(N)n1
3. O=C1/C(=N\N(C(=O)c2ccccc2)c2ccccc2)c2cccc3cccc1c23
4. O=C(NC(Cc1ccc(O)cc1)C(=O)O)SCc1ccccc1 (configuration not stated)
5. COC(=O)C1(CC(=O)c2cccc3ccccc23)NC(=S)NC(=O)C1C#N (configuration not stated)
6. CC1(C)OC2C(C3N(c4ccccc4)CCN3c3ccccc3)OC(n3ccc(=O)[nH]c3=O)C2O1 (configuration not stated)
7. COc1ccccc1C1CC(c2ccccc2)=Nc2ccccc2S1 (configuration not stated)

1. -13.3
2. 8.95
3. 49
4. 21
5. 15.7
6. -5.85
7. -45.2

# batch size: 2; output growth inhibition per entry
1. CC(=O)NNc1nc(C)c(C(=O)/C=C/c2ccc(Cl)cc2)s1
2. Nc1ccc2nc(-c3ccccc3)[nH]c2c1

[12.7, -8.65]

# batch size: 3; output growth inhibition per entry
1. CC1C(c2ccccc2O)c2cc3c(cc2OC1N1CCOCC1)OCO3 (configuration not stated)
2. COc1ccc(C(=O)NNC(=O)c2ccccc2)cc1
3. O=[N+]([O-])c1ccc(N/N=C2\C=C(c3ccccc3)C(c3ccccc3)C2)c([N+](=O)[O-])c1 (configuration not stated)

-13.6
-42.5
8.95

----------
Can you tell me growth inhibition for the items I'm about to list?
- test-description: NCI Yeast Anticancer Drug Screen. Data for the cln2 rad14 strain (AID 165);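 further: 0% = growth equal to vehicle treated cultures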
- condition-summary: S. cerevisiae cln2 rad14 strain, at 50.0 µM, active compounds read high
This is part of a sample that, as a whole, favours compounds with a hit. Of some 79,000 tested, about 15% had one in any assay.
Give bare numbers, in %.

| compound | growth inhibition, % |
| --- | --- |
| Cc1cc(Br)ccc1Br | -36.4 |
| CC1(c2ccccc2)OC1(C)c1ccccc1 (stereo not given) | -17.1 |
| NC(=S)N1CCCC1 | 7 |
| CCOP(=O)(OCC)C(C(=O)OC)C(=O)C(=O)Nc1cccc([N+](=O)[O-])c1 (stereo not given) | -58.6 |
| N#CC[N+]1(Cc2ccccn2)CCCC1 | 6.4 |

# batch size: 5; output growth inhibition per entry
1. N#Cc1ccccc1NC(=O)C(=O)C1NC(=S)NC1=O (stereo not given)
2. O=C(Cc1nc2ccc(C(=O)c3ccccc3)cc2[nH]c1=O)C(=O)Nc1ccc(Br)cc1
3. Cc1ccc(S(=O)(=O)/N=[N+](\[O-])c2ccc(N(C)C)cc2)cc1
4. CN(C)c1ccc(/C=c2/sc3nc(=O)c(-c4ccccc4NC(=O)C(F)(F)F)nn3c2=O)cc1
5. C=C1C2CC3CCC2C(OC(=O)c2ccccc2C(=O)O)C13 (stereo not given)

[13.6, -9.4, -35.7, -12.1, 14.8]

----------
- test-description: NCI Yeast Anticancer Drug Screen. Data for the cln2 rad14 strain (AID 165);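 further: 0% = growth equal to vehicle treated cultures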
- condition-summary: S. cerevisiae cln2 rad14 strain, at 50.0 µM
This is part of a sample that, as a whole, favours compounds with a hit. Of some 79,000 tested, about 15% had one in any assay. Activity calls are given as the source filed them. Cut-off read from the data, not from the text of the source: active = growth inhibition above about 70%; inactive = the rest. Where a SMILES comes first, the peptide text is derived from it. [ ]: non-standard residue; d: D form. ξ: configuration not given here. ξV = CC(C)C(N)C(=O)O
Choose one outcome from this list and give only that: 1.0 (active), 0.0 (inactive)

# example entries with known answers
| compound | cat |
| --- | --- |
| CCOC(=O)c1c(NNc2ccccc2)nc2ccccc2c1-c1ccccc1 | 0.0 |
| CCCC(CN1CCCCC1)C(OC(=O)c1ccc(N)cc1)C(F)(F)F (centres undefined) | 0.0 |
| COc1ccc(NC(=O)CCc2cc(C(C)(C)C)n[nH]2)cc1 | 0.0 |
| CCOC(=O)C1C(c2cc(OC)c(OC)c(OC)c2)c2cc3c(cc2OC1(C)OC)OCO3 (centres undefined) | 0.0 |
| COc1cc(C2=N/C(=C\c3ccc(Cl)c(Cl)c3)C(=O)O2)cc(OC)c1OC | 0.0 |

// outcome(item) with item = "Cc1ccc2ccc(-c3cc4ccccc4s3)nc2c1"
0.0

What about CC1=CCC(=O)[C@]2(C)C(CC(=O)O)[C@]3(C)C4=C(C)C(c5ccoc5)C[C@@H]4O[C@@H]3[C@H](O)[C@@H]12 (some centres undefined) ?
0.0

What about "CC1=CC(C)(C)SC(=S)N1" ?
0.0

What about "O=c1cc(CC(O)(c2ccccc2)c2ccccc2)cc[nH]1" ?
0.0

What about CC(C)C(N)C(=O)NCC(=O)NCC(=O)O (stereo not drawn) (H-[ξV]-Gly-Gly-OH) ?
0.0

What about "CC(C)CC(=O)Cc1nc2n(c1O)C(=N)N=N2" ?
0.0

----------
Can you tell me growth inhibition for the items I'm about to list?
- test-description: NCI Yeast Anticancer Drug Screen. Data for the cln2 rad14 strain (AID 165);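 further: 0% = growth equal to vehicle treated cultures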
- condition-summary: S. cerevisiae cln2 rad14 strain, at 50.0 µM, active compounds read high
- Procedure: Growth inhibition of yeast strains with defined genetic alterations is measured as a screen for potential anti-cancer activity. Selected strains with alterations in DNA damage repair or cell cycle control were exposed to compounds and growth inhibition was measured relative to vehicle treated controls. The strain used in this assay is cln2 rad14
Compounds without any hit were thinned out: in the full panel of roughly 79,000, 15% have a hit.
Answers are plain numbers, in %.

| compound | unit-string | endpoint-value |
| --- | --- | --- |
| CN(C)CCNC(=O)c1cccc2c1Oc1cccc([N+](=O)[O-])c1O2 | % | 14.4 |
| CCC(C#N)NC1CCN(Cc2ccccc2)CC1 (stereo not given) | % | 6.1 |
| CC(C)=CC(=O)n1nc2c(c1CC(C)C)C(=O)C(Nc1ccccc1)=CC2=O | % | 24.8 |
| OC1[C@H](O)CN(OCc2ccccc2)C[C@@H]1O (stereo not given in full) | % | -20.4 |

Would you kindly share the measured growth inhibition for "O=C(NCc1ccccc1)Nc1cccc2c(NC(=O)NCc3ccccc3)cccc12" ?
-8.15
